test: yeast display, Sf9 membrane polyspecificity reagent, FACS + sequencing; frameworks hold sequencing errors
assay-readout: polyreactivity (PSR sort gate)

QVQLVESGGGLVQAGGSLRLICAASGRIFRRYAMGWYRQAPGKERELVASISLSGGSTYYADSVKGRFTISRDNAKNTVYLQMNSLKPEDTAVYYCAAVRPGVSNYGHWGQGTQLTVSS high polyreactivity
QVQLVESGGGLVQAGGSLRLSCAASGFTFDPYAMGWYRQAPGKERELVAAISFSGGSTSYADSVKGRFTISRDNAKNTVYLQMNSLKPEDTAVYYCAAYSWLYEGYEYWGLGTQVTVSS high polyreactivity
QVQLVESGGGLVQAGGSLRLSFAASGRTFSRYAMVWYRQAPGKERELVATISFGGSTYYADSVKGRFTISRDNAKNTVYLQMNSLKPEDTALYYCTARYYLNYRGRKYESWGQGTQVTVSS high polyreactivity
QVQLVESGGGLVQAGGSLRLSCAASGRTLATYAMGWYRQAPGKERELVAAISTSGTRTYYADSVKGRFTISRDNAKNTVYLQMNSLKPEDTAVYYCNAGPGYDYWGHGTQVTVSS high polyreactivity

====

assay: yeast display, Sf9 membrane polyspecificity reagent, FACS + sequencing; frameworks hold sequencing errors
assay-readout: polyreactivity (PSR sort gate)

QVQLVESGGGLVQAGGSLRLRSAASGSIIPEYVMGWYRQAPGKERELVAAISWSGGSTYYADSVKGRFTISRDNAKNTDYLQMNSLKPEDTAVYYCNRVPSWRIDYDYWGQGTQVTVSS low polyreactivity
QVQLVESVGGLVQAGGSLRLSCAASGRTFRYYTMGWYRQAPGKERELVASISWSGGSTYYADSVKGRFTISRDNAKNTVYLQMNSLKPEDTAVYYCNAVYGYRGVTNMDYWGQGTQVTVSS high polyreactivity
QVQLVESAGGLVQAGGSLRLICAASGSIVASYPKGWYRQAPGKERELVAAISDGGGRTYYADSVKGRFTISRDNAKNTVYLQMNSLKPEDTAVYYCAAYAVYTYRRARVYWGQGTQVTVSS high polyreactivity
QVQLVESRGGLVQAGGSLRLSCAASGFTFWDNVIGWYRQAPGKERELVAAISNSGGRTYYADSVKGRFTISRDNEKNTVYLQMNILKPEDTAVYYCARYGRRHGYPILDYWGQGTQVTVSS high polyreactivity
QVQLVESGGGLVQAGGSLRLSCAASGSTIYLYDMGWYRQAPGKERELVATITSGTSTTYADSVKGRFTISRDYAKNTVYLQMNSLKPADTAVYYCNATDVGIITVGYGHGGYYWGQGTQVTVSS low polyreactivity
QVQLVESGVGLVQAGGILRLSCAASGSIFAVNAMGWYRQAPGKERELFAAISKRGGSTYYADSVKGRFTISRDNAKNTVYLQMNSLKPEDTAVYYCAARILVTYHRDYYYWGLGTQVTVSS high polyreactivity
QVQLVESGGGLVQAGGSLRLSCAASGFTFYEYSMGWYRQAPGKERELVAAINWNGGRTYYADSVKGRFTISRDNAKNTVYLQMNSLKPEDTAVYYCAARVAPKTKIYRRYYWGQGTQVTVSS high polyreactivity
QVQLVESGGGLVQAGGSLRLSCAASGFTFSHYAMGWYRQAPGKERELVAAISRRGSSTYYADSVKGRFTISRDNAKNTVYLQMNSLKPEDTAVYYCNVERLTGVWYYQRPSQDGYWGQGTQVTVSS high polyreactivity

Provide the reported polyreactivity (PSR sort gate) of each entry below, same order.
1. QVQLVESGGGLVQAGGSLRLSCAASGSIFRRYAMGWYRQAPGKERELVATITSTDSTNYADSVKGRFTISRDNAKNTVYLQMNSLKPEDTAVYYCAKRPYHYRRNSEYYYWGQGTQVTVSS
2. QVQLVESGGGLVQAGGSLRLSCAASGRIFGYYAMGWSRPAPGKERELVATITFGGVSTYYADSVKGRFTISRDNAKNNVYLQMNSLKPEDTGVYYCAADSGYLGIYGDEYSWGQGTQVTVSS
3. QVQLVESGGGLVQAGGSLRLSCAASGRTFNIYAMGWYRQAPGKERELVAAISSGGSTYYADSVKGRFTISRDNAKNTVYLQMNSLKPEDTAVYYCAAVEFELRGDYWGQGTQVTVSS
4. QVQLVESGGGLVQAGGSLRLSCAASGFTFSSYAMGWYRQAPGKERELDAAITRNGGSTYYADSVKGRFTISRDNAKNTDYLQMNSLNPEYTAVYNCAAQYPRQRYGYYWPYYKYYYWGHGTQVTVSS

# output
low polyreactivity
low polyreactivity
low polyreactivity
high polyreactivity
